Biological target: T1, recombinant human PAD4 (human, UniProt Q9UM07 1-663)
T1 construct: also called rhPAD4; hPAD4
T1 sequence (Q9UM07 whole entry): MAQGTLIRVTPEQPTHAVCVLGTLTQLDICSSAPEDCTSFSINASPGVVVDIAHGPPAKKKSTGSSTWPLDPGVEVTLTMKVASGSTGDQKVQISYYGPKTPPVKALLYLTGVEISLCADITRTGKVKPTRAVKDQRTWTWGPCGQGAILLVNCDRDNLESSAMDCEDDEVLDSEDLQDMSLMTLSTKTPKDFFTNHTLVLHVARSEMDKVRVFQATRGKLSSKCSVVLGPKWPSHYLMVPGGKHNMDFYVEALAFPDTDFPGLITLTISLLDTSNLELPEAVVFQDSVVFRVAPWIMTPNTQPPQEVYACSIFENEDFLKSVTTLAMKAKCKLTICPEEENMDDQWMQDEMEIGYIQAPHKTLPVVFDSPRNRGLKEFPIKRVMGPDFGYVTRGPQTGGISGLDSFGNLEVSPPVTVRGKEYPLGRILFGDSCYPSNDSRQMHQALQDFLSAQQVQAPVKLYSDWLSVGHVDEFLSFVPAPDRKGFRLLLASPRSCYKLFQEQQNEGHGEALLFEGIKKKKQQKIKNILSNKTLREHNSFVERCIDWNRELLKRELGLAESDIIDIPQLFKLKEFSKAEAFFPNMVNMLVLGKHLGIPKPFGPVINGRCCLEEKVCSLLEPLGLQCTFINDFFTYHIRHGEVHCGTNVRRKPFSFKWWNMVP
Test: SPR 37 C, captured antibody, PAD4 analyte, 2 mM EDTA
Method: For SPR measurements, either an anti-human capture surface or Protein A surface (Cytiva catalog #29127555) was used. Anti-human capture surface was prepared by immobilizing anti-human capture antibody (Cytiva catalog #29234600) onto flow cells of a CM5 or CM4 biosensor following the manufacturer's amine coupling protocol (Cytiva catalog #BR-1006-33). […] The association and dissociation of the antibodies with PAD4 were measured. […]
pKd: −log10 of the molar value.
# reported pKd; entries follow
Readout name: pKd

# Binder, Readout name, Result number
rows = [
    ("hz20-14 (antibody, V domains shown, light constant region not tied to this antibody) VH: QVQLVQSGAEVKKPGASVKVSCKASGYTFTNYGISWVRQRPGQGLEWMGEIYPRSGNTYHNEKFKDRVTMTTDKSTSTAYMELRSLRSEDTAVYYCARSMITTRYWYFDVWGKGTTVTVSS VL: DIVMTQSPDSLAVSLGERATINCRASESVDTYGNSFMHWYQQKPGQPPKLLIYLASNLESGVPDRFSGSGSGTDFTLTIDSLQAEDVAVYYCQQNNEDPLTFGQGTKLEIK", "pKd", 9.40),
    ("hz20-10 (antibody, V domains shown, light constant region not tied to this antibody) VH: QVQLVQSGAEVKKPGASVKVSCKASGYTFTNYGISWVRQAPGQGLEWMGEIYPRSGNTYHNEKFKDRVTMTTDKSTSTAYMELRSLRSDDTAVYYCARSMITTRYWYFDVWGKGTTVTVSS VL: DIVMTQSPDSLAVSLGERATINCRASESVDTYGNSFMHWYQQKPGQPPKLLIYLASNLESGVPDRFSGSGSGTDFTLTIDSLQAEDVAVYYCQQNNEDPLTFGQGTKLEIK", "pKd", 9.40),
]

This collection of values is drawn from patent US20240132622A1.
